- Test System: Human immunodeficiency virus type 1 protease (Human immunodeficiency virus 1, UniProt Q72874)
Reported Metric: pIC50
Numbers only, as −log10 of the molar value.

>>> observed_value("CC(C)(C)NC(=O)c1ccccc1C[C@@H](O)[C@H](CSc1ccc2ccccc2c1)NC(=O)[C@H](CC(N)=O)NC(=O)OCc1ccccc1")
8.82
>>> observed_value("CC(=O)N[C@@H](CC(N)=O)C(=O)N[C@@H](CSc1ccc2ccccc2c1)[C@H](O)Cc1ccccc1C(=O)NC(C)(C)C")
8.96
>>> observed_value("CC(C)(C)NC(=O)c1ccccc1C[C@@H](O)[C@H](CSc1ccccc1)NC(=O)[C@H](CC(N)=O)NC(=O)OCc1ccccc1")
7.85

Query string: Find the recorded pIC50 belonging to CC(=O)N[C@@H](CC(N)=O)C(=O)N[C@@H](CSc1ccccc1)[C@H](O)Cc1ccccc1C(=O)NC(C)(C)C and report it.
Result string: 7.72

---

- System: CCRF-CEM
- Assay Details: Concentration required for inhibitory activity against CEM cells in a whole cell assay.
- Assay type: functional
- Run Parameters: Homo sapiens, read-out: ED50 (the source's name)
Reported Metric: EC50 (nM)
Give bare numbers, in nM.

Query string: Find the recorded EC50 belonging to CC(C)(C)NC(=O)c1ccccc1C[C@@H](O)[C@H](Cc1ccccc1)NC(=O)[C@H](CC(N)=O)NC(=O)c1ccc2ccccc2n1 and report it.
Result string: 23

---

Can you tell me pIC50 for the items I'm about to list?
- Test System: Human immunodeficiency virus type 1 protease (Human immunodeficiency virus 1)
Answers are plain numbers, as −log10 of the molar value.

>>> observed_value("CC(C)(C)NC(=O)[C@@H]1C[C@@H]2CCCC[C@@H]2CN1C[C@@H](O)[C@H](CSc1ccccc1)NC(=O)[C@H](CC(N)=O)NC(=O)c1ccc2ccccc2n1")
8.82

Turning to the following molecule.
Query string: Enter reported pIC50 observed with Human immunodeficiency virus type 1 protease (Human immunodeficiency virus 1) for CC(C)(C)NC(=O)c1ccccc1C[C@@H](O)[C@H](CSc1ccccc1)NC(=O)[C@H](CC(N)=O)NC(=O)c1ccc2ccccc2n1
Result string: 8.96

---

These records show pIC50 for Human immunodeficiency virus type 1 protease (Human immunodeficiency virus 1).
pIC50: −log10 of the molar value.

Here's what some known entries look like.
>>> observed_value("CC(C)(C)NC(=O)c1ccccc1C[C@@H](O)[C@H](CSc1ccc2ccccc2c1)NC(=O)[C@H](CC(N)=O)NC(=O)c1ccc2ccccc2n1")
"> 9.60"
>>> observed_value("CC(C)(C)NC(=O)[C@@H]1C[C@@H]2CCCC[C@@H]2CN1C[C@@H](O)[C@H](CSc1ccc2ccccc2c1)NC(=O)[C@H](CC(N)=O)NC(=O)c1ccc2ccccc2n1")
"> 9.60"

Turning to the following compound.
Query string: Find the recorded pIC50 belonging to CC(C)(C)NC(=O)c1ccccc1C[C@@H](O)[C@H](CSc1ccc2ccccc2c1)NC(=O)CCC(N)=O and report it.
Result string: < 7.10
